target: Prostaglandin G/H synthase 1 (Homo sapiens); assay: Inhibition of COX-1 in human whole blood assessed as inhibition of serum TXB2 level after 1 hr by radioimmunoassay
Sequence (P23219 whole entry): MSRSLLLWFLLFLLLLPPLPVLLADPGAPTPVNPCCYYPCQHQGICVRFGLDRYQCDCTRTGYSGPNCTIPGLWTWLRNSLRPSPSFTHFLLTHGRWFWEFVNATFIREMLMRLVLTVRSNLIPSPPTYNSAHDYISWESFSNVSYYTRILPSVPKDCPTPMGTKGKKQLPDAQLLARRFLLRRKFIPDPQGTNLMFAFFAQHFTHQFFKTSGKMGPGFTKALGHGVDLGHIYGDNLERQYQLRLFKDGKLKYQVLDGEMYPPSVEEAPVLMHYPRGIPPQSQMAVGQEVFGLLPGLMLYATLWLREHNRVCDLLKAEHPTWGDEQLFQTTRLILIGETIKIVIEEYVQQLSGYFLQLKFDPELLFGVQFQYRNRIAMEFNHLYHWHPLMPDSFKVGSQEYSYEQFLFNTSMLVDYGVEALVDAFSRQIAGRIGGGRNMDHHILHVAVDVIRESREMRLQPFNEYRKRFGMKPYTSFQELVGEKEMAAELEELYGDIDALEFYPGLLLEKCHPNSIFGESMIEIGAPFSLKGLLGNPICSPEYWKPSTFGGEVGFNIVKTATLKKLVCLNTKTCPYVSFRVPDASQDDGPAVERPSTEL
REPORTED METRIC: pIC50
Give bare numbers, as −log10 of the molar value.

Hey, can you go through the list below and give me pIC50 for every item?
1. COC(=O)c1c(-c2ccccc2)noc1-c1ccccc1
2. CC(=O)OCc1onc(-c2ccc(Cl)o2)c1-c1ccccc1
3. Cc1ccc(-c2noc(C)c2-c2ccccc2)o1
4. Cc1onc(-c2cccc(Cl)c2)c1-c1ccccc1
5. Cc1onc(-c2ccccc2Cl)c1-c1ccccc1
6. Cc1onc(-c2ccc(Br)o2)c1-c1ccccc1

output:
1. 4.76
2. 5.30
3. 6.49
4. 5.89
5. 6.57
6. 6.48

---

Answer each item with its documented IC50.
target: Prostaglandin G/H synthase 1 (Homo sapiens); experiment: Inhibition of COX-1 (unknown origin) in platelet rich plasma assessed as inhibition of arachidonic acid-induced TXB2 formation incubated for 5 mins prior to arachidonic acid challenge measured for 5 mins by aggregometric analysis
One number for each entry, in µM.

Some solved cases for reference:
SMILES DATA | UNIT ABBREVIATION | IC50
FC(F)(F)c1onc(-c2ccc(Cl)o2)c1-c1ccccc1 | µM | 3.7
Cc1ccc(-c2noc(C)c2-c2ccccc2)o1 | µM | 4.3
Cc1onc(-c2ccc(Br)o2)c1-c1ccccc1 | µM | 3.4
CC(=O)OCc1onc(-c2ccc(Cl)o2)c1-c1ccccc1 | µM | 20

input: State its IC50 for this molecule: `Cc1onc(-c2ccc(Cl)o2)c1-c1ccccc1`
output: 12

---

test: Binding affinity to human alpha1-acid glycoprotein by HPLC analysis relative to control; type: ADME; conditions: pooled result: one value given for 2 cell lines, strains, targets or settings
REPORTED METRIC: Activity (%)
Answers are plain numbers, in %.

Some entries whose results are on file:
SMILES DATA | REPORTED METRIC | NUMBER
FC(F)(F)c1onc(-c2ccc(Cl)o2)c1-c1ccccc1 | Activity | 94.3
Cc1ccc(-c2noc(C)c2-c2ccccc2)o1 | Activity | 94.7
Cc1onc(-c2ccc(Cl)o2)c1-c1ccccc1 | Activity | 95.7

Could you now look at the following molecule, please?
input: Using the record for `Cc1onc(-c2ccc(Br)o2)c1-c1ccccc1` , state its measured Activity.
output: 96.1

---

Would you mind telling me the reported pIC50 of each entry?
target: Prostaglandin G/H synthase 2 (Homo sapiens, UniProt P35354); test: Inhibition of COX-2 in human whole blood assessed as inhibition of LPS-induced plasma PGE2 level by radioimmunoassay
Sequence (P35354 whole entry): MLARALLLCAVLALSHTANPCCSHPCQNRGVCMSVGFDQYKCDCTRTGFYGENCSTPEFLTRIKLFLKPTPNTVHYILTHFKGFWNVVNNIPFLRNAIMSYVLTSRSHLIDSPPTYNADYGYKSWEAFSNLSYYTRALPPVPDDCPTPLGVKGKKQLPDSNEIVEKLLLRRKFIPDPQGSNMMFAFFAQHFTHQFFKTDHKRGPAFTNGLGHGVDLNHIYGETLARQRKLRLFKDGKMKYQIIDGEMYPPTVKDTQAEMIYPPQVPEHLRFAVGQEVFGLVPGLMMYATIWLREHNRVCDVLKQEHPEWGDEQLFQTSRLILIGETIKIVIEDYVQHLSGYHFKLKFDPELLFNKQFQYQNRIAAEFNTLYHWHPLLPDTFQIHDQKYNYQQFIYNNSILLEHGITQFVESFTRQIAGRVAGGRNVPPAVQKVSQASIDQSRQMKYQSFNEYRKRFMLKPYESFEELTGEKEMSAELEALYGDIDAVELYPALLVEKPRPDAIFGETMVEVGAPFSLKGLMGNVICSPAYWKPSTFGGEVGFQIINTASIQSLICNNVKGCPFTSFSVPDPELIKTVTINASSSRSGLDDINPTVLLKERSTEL
pIC50: −log10 of the molar value.

COMPOUND | pIC50
O=C(O)c1c(-c2ccccc2)noc1-c1ccccc1 | < 4.00
COC(=O)c1onc(-c2ccc(Cl)o2)c1-c1ccccc1 | < 4.00
O=C(OCCCO[N+](=O)[O-])c1onc(-c2ccc(Cl)o2)c1-c1ccccc1 | < 4.00

Consider the following items and state reported pIC50 for each.
1. O=C(O)c1onc(-c2ccc(Cl)o2)c1-c1ccccc1
2. O=C(O)c1c(-c2ccc(Cl)o2)noc1-c1ccccc1
3. Cc1onc(-c2ccco2)c1-c1ccccc1
4. OCc1onc(-c2ccc(Cl)o2)c1-c1ccccc1
5. O=C(OCCCN1CCOCC1)c1onc(-c2ccc(Cl)o2)c1-c1ccccc1
6. COC(=O)c1c(-c2ccc(Cl)o2)noc1-c1ccccc1
7. Cc1ccc(-c2noc(C)c2-c2ccccc2)o1

output:
1. < 4.00
2. < 4.00
3. 4.69
4. < 4.00
5. < 4.00
6. < 4.00
7. 4.17
